A collection of compounds and their measured MIC
test system: Pseudomonas aeruginosa; experiment: Antibacterial activity against Pseudomonas aeruginosa ATCC 27853 after 18 to 24 hrs by twofold serial dilution method; assay type: functional
# number only, unit µg/mL dropped from output

Qu. Reported MIC for CCO/N=C(/N)C1CN(c2c(F)cc3c(=O)c(C(=O)O)cn(C4CC4)c3c2OC)C/C1=N\OC (stereo unspecified) : what is it?
Ans. 128

Qu. Can you look up the measured MIC of CCO/N=C(/N)C1CN(c2c(F)cc3c(=O)c(C(=O)O)cn4c3c2OC[C@@H]4C)C/C1=N\OC (stereo partly specified) for me?
Ans. 16

Qu. Need MIC, item CO/N=C1\CN(c2nc3c(cc2F)c(=O)c(C(=O)O)cn3C2CC2)CC1/C(N)=N\OC (stereo unspecified)
Ans. 64

* * *

test system: Staphylococcus epidermidis; assay: Antibacterial activity against methicillin-resistant Staphylococcus epidermidis 09-4 after 18 to 24 hrs by twofold serial dilution method; format: functional
Hi! Just check whether MIC is below 0.5 µg/mL. Below gives label 1, equal or above gives label 0.

Answered examples (4):
{"columns": ["molecule", "category"],
 "data": [
  ["CCO/N=C(/N)C1CN(c2c(F)cc3c(=O)c(C(=O)O)cn(C4CC4)c3c2OC)C/C1=N\\OC (configuration not stated)", "label 1"],
  ["CCO/N=C1\\CN(c2nc3c(cc2F)c(=O)c(C(=O)O)cn3-c2ccc(F)cc2F)CC1/C(N)=N\\OCC (configuration not stated)", "label 0"],
  ["CCO/N=C1\\CN(c2c(F)cc3c(=O)c(C(=O)O)cn(C4CC4)c3c2OC(F)F)CC1/C(N)=N\\OCC (configuration not stated)", "label 0"],
  ["CCO/N=C1\\CN(c2nc3c(cc2F)c(=O)c(C(=O)O)cn3-c2ccc(F)cc2F)CC1/C(N)=N\\OC (configuration not stated)", "label 1"]
]}

Lab note: next molecule to report on.
Qu. Please state whether MIC is below 0.5 µg/mL for CCO/N=C1\CN(c2c(F)cc3c(=O)c(C(=O)O)cn(C4CC4)c3c2OC(F)F)CC1/C(N)=N\O (configuration not stated)
Ans. label 0

* * *

system: Klebsiella pneumoniae; test: Antibacterial activity against Klebsiella pneumoniae 09-22 after 18 to 24 hrs by twofold serial dilution method; type: functional
Entries annotated with measured MIC

A selection of reference data follows.
{"columns": ["compound", "measured_result"],
 "data": [
  ["CCO/N=C1\\CN(c2c(F)cc3c(=O)c(C(=O)O)cn(CC)c3c2F)CC1/C(N)=N\\OCC (stereo not given)", "> 128 µg/mL"],
  ["CCO/N=C1\\CN(c2c(F)cc3c(=O)c(C(=O)O)cn(CC)c3c2F)CC1/C(N)=N\\O (stereo not given)", "> 128 µg/mL"],
  ["CCO/N=C1\\CN(c2c(F)cc3c(=O)c(C(=O)O)cn(CCF)c3c2F)CC1/C(N)=N\\OC (stereo not given)", "> 128 µg/mL"],
  ["CCO/N=C1\\CN(c2nc3c(cc2F)c(=O)c(C(=O)O)cn3C2CC2)CC1/C(N)=N\\O (stereo not given)", "> 128 µg/mL"]
]}

Kindly consider the entry below.
Qu. Can you look up the measured MIC of CCO/N=C1\CN(c2c(F)cc3c(=O)c(C(=O)O)cn4c3c2OC[C@@H]4C)CC1/C(N)=N\OCC (stereo not given in full) for me?
Ans. > 128 µg/mL

* * *

// log10 MIC lookup, one value per entry
tested on: Pseudomonas aeruginosa; test: Antibacterial activity against Pseudomonas aeruginosa 09-32 after 18 to 24 hrs by twofold serial dilution method; type: functional
All values: base-10 log of MIC in µg/mL.

{"columns": ["molecule", "measured_result"],
 "data": [
  ["CCn1cc(C(=O)O)c(=O)c2cc(F)c(N3C/C(=N\\OC)C(/C(N)=N\\O)C3)c(F)c21 (stereo unspecified)", 0.00]
]}

Qu. Any idea what log10 MIC was measured for CCO/N=C1\CN(c2c(F)cc3c(=O)c(C(=O)O)cn(C4CC4)c3c2OC(F)F)CC1/C(N)=N\O (stereo unspecified) ?
Ans. 2.11

Qu. Quick one: log10 MIC of CO/N=C1\CN(c2nc3c(cc2F)c(=O)c(C(=O)O)cn3C2CC2)CC1/C(N)=N\OC (stereo unspecified) ?
Ans. 2.11

* * *

// reported MIC for each item listed
tested on: Staphylococcus aureus; experiment: Antibacterial activity against Staphylococcus aureus ATCC […] after 18 to 24 hrs by twofold serial dilution method; format: functional
Just the number please, in µg/mL, no unit attached.

# annotated cases, reported MIC shown
{"columns": ["compound", "system_tested", "MIC (µg/mL)"],
 "data": [
  ["CO/N=C1\\CN(c2c(F)cc3c(=O)c(C(=O)O)cn4c3c2OC[C@@H]4C)CC1/C(N)=N\\OC (some centres undefined)", "Staphylococcus aureus", 0.125],
  ["CCO/N=C1\\CN(c2c(F)cc3c(=O)c(C(=O)O)cn(CC)c3c2F)CC1/C(N)=N\\OC (centres undefined)", "Staphylococcus aureus", 1],
  ["CCO/N=C(/N)C1CN(c2c(F)cc3c(=O)c(C(=O)O)cn(CCF)c3c2F)C/C1=N\\OC (centres undefined)", "Staphylococcus aureus", 0.25]
]}

Attention now turns to another entry.
Qu. Need MIC of CCO/N=C(/N)C1CN(c2nc3c(cc2F)c(=O)c(C(=O)O)cn3C2CC2)C/C1=N\OC (centres undefined) , thanks.
Ans. 2

* * *

system: Escherichia coli; assay: Antibacterial activity against Escherichia coli ATCC 25922 after 18 to 24 hrs by twofold serial dilution method; format: functional
measurement_label: MIC

Recorded results for 5 compounds are shown here.
{"columns": ["compound", "system_tested", "MIC"],
 "data": [
  ["CO/N=C1\\CN(c2c(F)cc3c(=O)c(C(=O)O)cn(C4CC4)c3c2OC(F)F)CC1/C(N)=N\\O (stereo not drawn)", "Escherichia coli", "128 µg/mL"],
  ["CO/N=C1\\CN(c2c(F)cc3c(=O)c(C(=O)O)cn(C4CC4)c3c2OC)CC1/C(N)=N\\OC (stereo not drawn)", "Escherichia coli", "128 µg/mL"],
  ["CCO/N=C1\\CN(c2c(F)cc3c(=O)c(C(=O)O)cn4c3c2OC[C@@H]4C)CC1/C(N)=N\\O (stereo partly drawn)", "Escherichia coli", "> 128 µg/mL"],
  ["CCO/N=C(/N)C1CN(c2c(F)cc3c(=O)c(C(=O)O)cn(CC)c3c2F)C/C1=N\\OC (stereo not drawn)", "Escherichia coli", "> 128 µg/mL"],
  ["CO/N=C1\\CN(c2c(F)cc3c(=O)c(C(=O)O)cn(C4CC4)c3c2OC)CC1/C(N)=N\\O (stereo not drawn)", "Escherichia coli", "> 128 µg/mL"]
]}

Qu. Which MIC is reported for this compound? CO/N=C1\CN(c2c(F)cc3c(=O)c(C(=O)O)cn(CCF)c3c2F)CC1/C(N)=N\OC (stereo not drawn)
Ans. 128 µg/mL

Qu. Param item = CCO/N=C(/N)C1CN(c2c(F)cc3c(=O)c(C(=O)O)cn(CCF)c3c2F)C/C1=N\OC (stereo not drawn) ; retrieve measured MIC.
Ans. > 128 µg/mL

Qu. Recorded MIC of CCO/N=C1\CN(c2c(F)cc3c(=O)c(C(=O)O)cn(CCF)c3c2F)CC1/C(N)=N\OC (stereo not drawn) , please.
Ans. > 128 µg/mL

* * *

tested on: Enterococcus faecium; test: Antibacterial activity against Enterococcus faecium 08-7 after 18 to 24 hrs by twofold serial dilution method; assay type: functional
Entries and their measured MIC follow.

Qu. Requested read-out: MIC. Entry: `C[C@H]1COc2c(N3CCN(C)CC3)c(F)cc3c(=O)c(C(=O)O)cn1c23.C[C@H]1COc2c(N3CCN(C)CC3)c(F)cc3c(=O)c(C(=O)O)cn1c23.O`
Ans. 2 µg/mL

Qu. Which value of MIC has been reported for CCO/N=C1\CN(c2c(F)cc3c(=O)c(C(=O)O)cn(C4CC4)c3c2OC)CC1/C(N)=N\O (stereo not drawn) in the records?
Ans. > 128 µg/mL

Qu. Give the measured MIC of CCO/N=C(/N)C1CN(c2c(F)cc3c(=O)c(C(=O)O)cn(C4CC4)c3c2F)C/C1=N\OC (stereo not drawn) .
Ans. > 128 µg/mL

* * *

system: Escherichia coli; assay: Antibacterial activity against Escherichia coli ATCC 25922 after 18 to 24 hrs by twofold serial dilution method; assay type: functional
measurement_label: MIC

{"columns": ["compound", "measurement_label", "measured_result"],
 "data": [
  ["CCO/N=C1\\CN(c2c(F)cc3c(=O)c(C(=O)O)cn(CC)c3c2F)CC1/C(N)=N\\OCC (stereo unspecified)", "MIC", "> 128 µg/mL"]
]}

Qu. Data request, read-out MIC, for CCO/N=C1\CN(c2nc3c(cc2F)c(=O)c(C(=O)O)cn3C2CC2)CC1/C(N)=N\OC (stereo unspecified)
Ans. > 128 µg/mL

Qu. // query MIC value for entry CCO/N=C1\CN(c2c(F)cc3c(=O)c(C(=O)O)cn(CC)c3c2F)CC1/C(N)=N\O (stereo unspecified)
Ans. > 128 µg/mL

Qu. Report MIC for CCO/N=C(/N)C1CN(c2c(F)cc3c(=O)c(C(=O)O)cn(C4CC4)c3c2F)C/C1=N\OC (stereo unspecified) please.
Ans. > 128 µg/mL

Qu. Name the recorded MIC for CO/N=C1\CN(c2c(F)cc3c(=O)c(C(=O)O)cn(CCF)c3c2F)CC1/C(N)=N\O (stereo unspecified) .
Ans. > 128 µg/mL

Qu. Which MIC reading was recorded for the compound CCO/N=C(/N)C1CN(c2nc3c(cc2F)c(=O)c(C(=O)O)cn3-c2ccc(F)cc2F)C/C1=N\OC (stereo unspecified) ?
Ans. > 128 µg/mL

Source listed as ChEMBL document CHEMBL1287651.
